# Test system: NCI-H1048 cells
# protocol-summary: MTT proliferation assay, NCI-H1048;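 also: Dose-response in 96-well plates over 8 or 10 concentration points, with exposure spanning 3-4 cell doublings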
# Format: cell-based
# reported-conditions: 5 days compound exposure, 1:3 serial dilution starting at 10 μM
*1 amine or outer side, *2 acyl side, *3 side chain or, on linkers, in order; H or OH if unused. Where a SMILES comes first, the peptide text is derived from it. Bridges are numbered along the chain shown (N, C = ends). [ ]: non-standard residue; d: D form. The star is where a group is joined. X42 = CN([C@@H](Cc1cc(Cl)ccc1-c1cnn(S(=O)(=O)C2CC2)c1)C(=O)[*:2])[*:1]; X26 = CN([C@@H](Cc1cc(F)ccc1-c1cnn(C2CC2)c1)C(=O)[*:2])[*:1]; NMehhhLys(Me) = CN([C@@H](CCCCCCCN(C)[*:3])C(=O)[*:2])[*:1]; NMe(hhhLys) = CN([C@@H](CCCCCCCN[*:3])C(=O)[*:2])[*:1]; Oxane2carbonyl(2R-CF3) = O=C([C@@]1(C(F)(F)F)CCCCO1)*; cBuCO(3,3-F2-1-CF3) = O=C(C1(C(F)(F)F)CC(F)(F)C1)*; Pro(trans-4-F) = O=C(O)[C@@H]1C[C@@H](F)CN1; Gly(cPr) = N[C@H](C(=O)O)C1CC1

compound	GI50
CC(C)C[C@@H]1NC(=O)[C@@H](N(C)C(=O)[C@@H](NC(=O)[C@@H]2C[C@@H](F)CN2C(=O)[C@@]2(C(F)(F)F)CCCCO2)C2CC2)CCCCCCCN(C)C(=O)[C@H](Cc2cc(Cl)ccc2-c2cnn(S(=O)(=O)C3CC3)c2)N(C)C1=O [Example 283] ({Oxane2carbonyl(2R-CF3)}-[Pro(trans-4-F)][Gly(cPr)][NMehhhLys(Me)]L[X42]; lactam 3-C)	10 nM
CC(C)C[C@@H]1NC(=O)[C@@H](N(C)C(=O)[C@@H](NC(=O)[C@@H]2C[C@@H](F)CN2C(=O)C2(C(F)(F)F)CC(F)(F)C2)C2CC2)CCCCCCCNC(=O)[C@H](Cc2cc(F)ccc2-c2cnn(C3CC3)c2)N(C)C1=O [Example 213] ({cBuCO(3,3-F2-1-CF3)}-[Pro(trans-4-F)][Gly(cPr)][NMe(hhhLys)]L[X26]; lactam 3-C)	10 nM
CC(C)C[C@@H]1NC(=O)[C@@H](N(C)C(=O)[C@@H](NC(=O)[C@@H]2C[C@@H](F)CN2C(=O)C2(C(F)(F)F)CC(F)(F)C2)C2CC2)CC=CCCCCN(C)C(=O)[C@H](Cc2cc(Cl)ccc2-c2cncnc2)N(C)C1=O	130 nM

###

// values below are reported GI50
# Tested on: OVCAR3 cells
# protocol-summary: MTT proliferation assay, OVCAR3;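 also: compound given as an 8- or 10-point series, one day after plating, with exposure covering roughly 3-4 cell doublings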
# Format: cell-based
# reported-conditions: 5 days compound exposure, 1:3 serial dilution starting at 10 μM
*1 amine or outer side, *2 acyl side, *3 side chain or, on linkers, in order; H or OH if unused. Where a SMILES comes first, the peptide text is derived from it. Bridges are numbered along the chain shown (N, C = ends). [ ]: non-standard residue; d: D form. The star is where a group is joined. X68 = CN([C@@H](Cc1cc(Cl)ccc1-c1cnn(C2CC2)c1)C(=O)[*:2])[*:1]; X26 = CN([C@@H](Cc1cc(F)ccc1-c1cnn(C2CC2)c1)C(=O)[*:2])[*:1]; NMehhhLys(Me) = CN([C@@H](CCCCCCCN(C)[*:3])C(=O)[*:2])[*:1]; NMe(hhhLys) = CN([C@@H](CCCCCCCN[*:3])C(=O)[*:2])[*:1]; X152 = CN([C@@H](Cc1cc(Cl)ccc1OC1CC1)C(=O)[*:2])[*:1]; Cyclobutanecarbonyl(1-CF3) = O=C(C1(C(F)(F)F)CCC1)*; cBuCO(3,3-F2-1-CF3) = O=C(C1(C(F)(F)F)CC(F)(F)C1)*; Pro(trans-4-F) = O=C(O)[C@@H]1C[C@@H](F)CN1; Gly(cPr) = N[C@H](C(=O)O)C1CC1

compound	units-symbol	GI50
CC(C)C[C@@H]1NC(=O)[C@@H](N(C)C(=O)[C@@H](NC(=O)[C@@H]2C[C@@H](F)CN2C(=O)C2(C(F)(F)F)CC(F)(F)C2)C2CC2)CCCCCCCN(C)C(=O)[C@H](Cc2cc(F)ccc2-c2cnn(C3CC3)c2)N(C)C1=O [Example 68] ({cBuCO(3,3-F2-1-CF3)}-[Pro(trans-4-F)][Gly(cPr)][NMehhhLys(Me)]L[X26]; lactam 3-C)	nM	10
CC(C)C[C@@H]1NC(=O)[C@@H](N(C)C(=O)[C@@H](NC(=O)[C@@H]2C[C@@H](F)CN2C(=O)C2(C(F)(F)F)CC(F)(F)C2)C2CC2)CCCCCCCN(C)C(=O)[C@H](Cc2cc(Cl)ccc2OC2CC2)N(C)C1=O [Example 314] ({cBuCO(3,3-F2-1-CF3)}-[Pro(trans-4-F)][Gly(cPr)][NMehhhLys(Me)]L[X152]; lactam 3-C)	nM	10
CC(C)C[C@@H]1NC(=O)[C@@H](N(C)C(=O)[C@@H](NC(=O)[C@@H]2C[C@@H](F)CN2C(=O)C2(C(F)(F)F)CCC2)C2CC2)CCCCCCCNC(=O)[C@H](Cc2cc(Cl)ccc2-c2cnn(C3CC3)c2)N(C)C1=O [Example 188] ({Cyclobutanecarbonyl(1-CF3)}-[Pro(trans-4-F)][Gly(cPr)][NMe(hhhLys)]L[X68]; lactam 3-C)	nM	20
